Cited source: patent US6531584B1

- Test system: c-raf mRNA
- Protocol description: Northern blot analysis of c-raf mRNA expression in T24 cells
- Format: cell-based, human
d = 2'-deoxy (DNA); m = 2'-O-methyl
For each entry below, report its inhibition of c-raf mRNA expression value.

INSERT INTO results (ordered_residues, result) VALUES
  ('TTCTCCTCCTCCCCTGGCAG (sugars from the 5'' end m12 d8, all phosphorothioate, T or U not given here) [ISIS 7854]', '> 70%');

Let us move to another entry and its inhibition of c-raf mRNA expression.
-- ask Indicate the recorded inhibition of c-raf mRNA expression value for this sequence: CTCGCCCGCTCCTCCTCCCC (2'-O-methyl P=S chimera, chemistry not fully specified) [ISIS 7849]
-- reply > 70%

----------
- System: c-raf mRNA
- Protocol description: Northern blot analysis of c-raf mRNA expression in T24 cells
- Format: cell-based, human
Observed property: inhibition of c-raf mRNA expression

Report inhibition of c-raf mRNA expression for each item below.
1. TTCTCGCCCGCTCCTCCTCC (2'-O-methyl P=S chimera, chemistry not fully specified) [ISIS 7856]
2. TCCTCCTCCCCGCGGCGGGT (2'-O-methyl P=S chimera, chemistry not fully specified) [ISIS 7848]

-- reply
["> 70%", "> 70%"]
